- Test system: CP286
- test.details: qHTS profiling for inhibitors of Plasmodium falciparum proliferation (AID 504749); further: nearly all actives have a fitted effect of over 60% in size
- condition.label: P. falciparum in erythrocytes, SYBR Green DNA, 72 h; series mostly up to 28.7 µM
Records with an inconclusive call do not appear. Activity calls are given as the source filed them. The call rests on the fitted dose curve; in most records, active means well fitted inhibition curve with a large enough effect; inconclusive means small, poorly fitted or top-dose-only effect; inactive means flat fitted curve, though single readings scatter.
Respond with a class label; see t for active, f for inactive

Examples with answers:
compound=C/C=C/c1ccc(O)c(OC)c1 cat=f
compound="CCCCCCCCNC(C)C(O)c1ccc(SC(C)C)cc1 (stereo unspecified)" cat=t

How did this test come out for CC(C)Nc1cccnc1N1CCN(C(=O)c2cc3cc(NS(C)(=O)=O)ccc3[nH]2)CC1 ?
f

Called result for NC(=O)n1c(O)c(C(=O)c2cccs2)c2cc(Cl)ccc21
f

Give the logged outcome of this assay for the following compound: CC(C)NCC(O)c1ccc2ccccc2c1 (stereo unspecified)
t

Entry C#C[C@]1(O)CC[C@H]2[C@@H]3CCc4cc(OC)ccc4[C@H]3CC[C@@]21C : call = ?
f

I would be grateful if you could indicate the recorded call for CC(=O)NCCCCCC(=O)O .
f

In this assay, the call recorded for CC(=O)Nc1ccc(S(=O)(=O)Nc2ccc([N+](=O)[O-])cc2)cc1 was what?
f

# outcome recorded in this test, key = Nc1nc(N)c(-c2ccccc2)s1
f

Field: outcome | Entry: Nc1ccc(C(=O)NCC(=O)O)cc1
f

Short answer needed: outcome of this test for O=C(O)CCC(=O)Nc1ccc(S(=O)(=O)Nc2nccs2)cc1 ?
f
